MEASURED TARGET: DNA topoisomerase II (Homo sapiens) (UniProt P11388+Q02880)
EXPERIMENT SUMMARY: Compound was tested for percentage inhibition against DNA topoisomerase II
Format: protein assay
Design: concentration or dose not given beside the values
EXPERIMENTAL CONDITIONS: concentration not given here
// inhibition lookup, one value per entry

| COMPOUND | inhibition (%) |
| --- | --- |
| COc1cc([C@@H]2c3cc4c(c(O)c3C[C@H]3COC(=O)[C@@H]32)OCO4)cc(OC)c1O | 20 |
| COc1cc([C@@H]2c3cc4c(cc3[C@H](O)[C@H]3COC(=O)[C@H]23)OCO4)cc(OC)c1OC | 30 |
| COc1cc([C@@H]2c3cc4c(cc3[C@@H](O[C@@H]3O[C@@H]5CO[C@@H](C)O[C@H]5[C@H](O)[C@H]3O)[C@H]3COC(=O)[C@H]23)OCO4)cc(OC)c1O | 85 |
| CCO[C@@H]1c2cc3c(cc2[C@@H](c2cc(OC)c(O)c(OC)c2)[C@H]2C(=O)OCC12)OCO3 (stereo not given in full) | 89 |
| COc1cc([C@@H]2c3cc4c(cc3[C@@H](O)[C@H]3COC(=O)[C@H]23)OCO4)cc(OC)c1O | 60 |
